test.description: viability profiling in RPMI8226 myeloma cells – cell-based, resazurin fluorescence, basal, 24 h, PK04 Diversity Set, profiling panel (AID 1180);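 also: RPMI8826 multiple myeloma cell line at 5000 cells per well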
stated.conditions: higher = more signal
Kindly state z-score for each of the entries shown.
Kindly provide the number alone.

Ask: // z-score lookup, key: C=CCNC(=O)[C@@H]1[C@H]2C(=O)O[C@H](c3ccccc3)[C@H](c3ccccc3)N2[C@H](c2ccc(OCCO)cc2)[C@@]12C(=O)N(C(=O)OCCOC)c1ccc(C#CCNC(N)=O)cc12
Reply: 0.853

Ask: Requested read-out: z-score. Entry: C#CCN1[C@@H](Cc2ccc(O)cc2)C(=O)O[C@H](Cc2ccccc2)[C@@H]1/C=C/C1CC1
Reply: -1.21

Ask: I would be grateful if you could share the reported z-score for O=C1OCC=C[C@H]2OC34C=CCN(Cn5nnc6ccccc65)C(=O)[C@H]3N(CCCCCO)C(=O)[C@@H]4[C@@H]12 (stereo partly specified) .
Reply: -0.0297

Ask: Look up z-score for this compound: CC(C)[Si](C#CCCCC#N)(O[C@H](c1ccccc1)c1cn(Cc2cccc(Cl)c2)nn1)C(C)C
Reply: -0.701

Ask: Need z-score, item O=C1[C@H]2C=C(I)[C@H](C[C@@H]2OCCCCO)[C@@]12CO2
Reply: -0.304

Ask: Looking for the measured z-score of CC(C)C(=C=CC[C@H](O)c1ccc(CO)o1)CCO , can you help?
Reply: 0.152

Ask: Please give the measured z-score for this compound: CCOC(=O)C1=CC[C@@H](c2ccccc2)N(S(=O)(=O)c2ccc(C)cc2)[C@H]1c1ccc(CC)cc1
Reply: -0.224

Ask: Report z-score for CCCCN1CC=CC23O[C@@H]4C=CCCOC(=O)C4[C@H]2C(=O)N(CCCCCO)[C@@H]3C1=O (stereo partly specified) please.
Reply: 0.769

Ask: Any idea what z-score was measured for CC(C)NC(=O)[C@@H]1c2ccccc2C(=O)N(C(C)C)[C@H]1c1ccc(CO)cc1 ?
Reply: 0.135

Ask: What z-score value was documented for this compound, COC(=O)[C@@]1(Cc2ccccc2)[C@H]2c3cc(C(=O)N4CCCC4)n(Cc4ccc(O)c(OC)c4)c3C[C@H]2CN1C(=O)c1ccccc1 ?
Reply: -2.74

Ask: Tell me the measured z-score of [N-]=[N+]=Nc1ccccc1C[C@]1(C(=O)NCC(O)CO)N=C(c2ccc(OCCCO)cc2)O[C@H]1c1ccccc1 (stereo partly specified) , please.
Reply: -1

Ask: Find the recorded z-score belonging to CCCCCN1CC=CC23O[C@@H]4C=CCOC(=O)[C@@H]4[C@H]2C(=O)N(C(C)CO)[C@@H]3C1=O (stereo partly specified) and report it.
Reply: 0.003

Ask: // query z-score value for entry COCCOC(=O)N1C(=O)[C@@]2(c3ccccc31)[C@H](C(=O)N1CCc3cc(OC)c(OC)cc3C1)[C@H]1C(=O)O[C@H](c3ccccc3)[C@H](c3ccccc3)N1[C@@H]2c1ccc(O)cc1
Reply: -0.111

Ask: Consider the compound shown here: O=C1OCC=C[C@H]2OC34C=CCN(CCN5CCOCC5)C(=O)[C@H]3N(CCO)C(=O)[C@@H]4[C@@H]12 (stereo partly specified) What is its recorded z-score?
Reply: -0.386

Ask: Value lookup for z-score; key = COC(=O)[C@@]1(Cc2ccccc2)[C@H]2c3cc(C(=O)N4CCCC4)n(Cc4c(CO)[nH]cc(C)c4=O)c3C[C@H]2CN1C(=O)c1ccccc1
Reply: -0.467

Ask: Item under review: CC(C)N1CC=CC23O[C@@H]4C=CCOC(=O)[C@@H]4[C@H]2C(=O)N(CCCCCO)[C@@H]3C1=O (stereo partly specified) . Reported z-score?
Reply: 0.888

* * *

System: XIP peptide (Xip251-270)
test.description: compounds binding XIP fragment 251-270 – biochemical, small-molecule microarray, fluorescence 635/667 nm, 0.5 µg/mL protein, primary screen (AID 1183)
stated.conditions: fluorescence 635 nm, higher = more signal
Entries get a class label from measured composite z-score. See ranges: 1 (below 0.3), 2 (0.3 to below 0.7), 3 (0.7 or more)

Ask: Please report the category associated with CC(=O)NCCCC[C@@H]1NC(=O)[C@H]2C[C@@H](C(=O)NCCCCCNC(=O)CS)[C@@H](c3ccc(O)cc3)N2C1=O , nothing else.
Reply: 3

Ask: # bin lookup: classify CC(=O)n1cc(C(O)C2C=CC3C(=O)NC(=O)C3N2Nc2ccccn2)c2ccccc21 (stereo not drawn) by its composite z-score
Reply: 3

Ask: Which class holds O=C1O[C@H](c2ccccc2)[C@H](c2ccccc2)N2[C@H]1[C@@H](C(=O)NC[C@H](O)c1ccccc1)[C@]1(C(=O)Nc3ccc(C#CC4=CCCCC4)cc31)[C@H]2c1ccccc1OCCO ?
Reply: 1

Ask: Would you mind sorting O=C1N(CCS(=O)(=O)c2ccccc2)c2ccccc2[C@@H]2OC(c3ccc(OCCCO)cc3)=N[C@]12Cc1ccccc1 into the appropriate category?
Reply: 2

Ask: Where would COCCCNC(=O)[C@@H]1c2ccccc2C(=O)N(Cc2ccccc2OC)[C@H]1c1ccc(CO)cc1 land among the classes by reported composite z-score?
Reply: 1

Ask: Which of the defined bands does the recorded composite z-score of [N-]=[N+]=NCc1ccccc1[C@H]1OC(c2ccc(OCCCO)cc2)=N[C@@]1(Cc1ccccc1)C(=O)N1CCCCC1 sit within?
Reply: 2

Ask: Which category does the recorded composite z-score put [N-]=[N+]=Nc1ccccc1C[C@@]1(C(=O)N2CCCCC2)N=C(c2ccc(OCCCO)cc2)O[C@@H]1c1ccccc1 in?
Reply: 3

Ask: Into which category would you place Cc1ccc(S[C@]2(C(=O)O)CC(=O)N(Cc3ccccc3C(F)(F)F)[C@@H]2c2ccc(CO)cc2I)cc1 ?
Reply: 3

Ask: For the record O=C1OCCC=C[C@H]2OC34C=CCN(Cn5nnc6ccccc65)C(=O)[C@H]3N(CCO)C(=O)[C@@H]4C12 (stereo partly drawn) , report the class its composite z-score corresponds to.
Reply: 1

Ask: # bin lookup: classify COc1ccc(C#Cc2ccc3c(c2)[C@]2(C(=O)N3)[C@H](c3ccc(O)cc3)N3[C@H](c4ccccc4)[C@H](c4ccccc4)OC(=O)[C@H]3[C@@H]2C(=O)N2CCc3cc(OC)c(OC)cc3C2)cc1 by its composite z-score
Reply: 2

Ask: Place this compound in its band: COc1ccc(CCNC(=O)[C@@]2(C)c3ccccc3C(=O)N(c3ccc(C)cn3)[C@H]2c2ccc(CO)cc2)cc1
Reply: 2

Ask: Which bin, given its composite z-score, does CC1CC/C=C\[C@H]2OC34C=CCN(Cn5nnc6ccccc65)C(=O)[C@H]3N(CCCCCO)C(=O)[C@@H]4C2C(=O)O1 (stereo partly drawn) occupy?
Reply: 1

Ask: Pick a category. Item: O=C1C2C=CC(C(O)c3c(F)cccc3Cl)N(Nc3ccccc3F)C2C(=O)N1c1ccccc1 (stereo not drawn)
Reply: 3

Ask: # classify by composite z-score band: COC(=O)c1c2oc(c1C(=O)OC)C(=O)NC1(CCCCC1)c1cn(nn1)C[C@H](Cc1ccccc1)NC(=O)N[C@H](CO)CC2
Reply: 1

Ask: Record O=C(O)[C@@]1(CCS(=O)(=O)c2ccccc2)N=C(c2ccc(OCCCO)cc2)O[C@H]1c1ccccc1 — which class?
Reply: 2

Ask: Entry CO[C@H]1O[C@H](CO)[C@@H](OC(=O)Nc2ccccc2-c2ccccc2)[C@H](OC(=O)Nc2ccccc2-c2ccccc2)[C@@H]1OC(=O)Nc1ccccc1-c1ccccc1 belongs to which category?
Reply: 3

Ask: Given COC(=O)C(CC#Cc1ccc2c(c1)[C@]1(C(=O)N2)[C@H](c2ccc(O)cc2)N2[C@H](c3ccccc3)[C@H](c3ccccc3)OC(=O)[C@H]2[C@@H]1C(=O)N1CCN(c2ncccn2)CC1)C(=O)OC , name the class its composite z-score places it in.
Reply: 3

Ask: Class for CC(C)(C)OC(=O)CC[C@]1(C(=O)NCCN2CCOCC2)COC(c2ccc(OCCCO)cc2)=N1 ?
Reply: 3

Ask: Which class is correct for the following compound? CCOC(=O)[C@H]1C/C=C/C[C@H](C(=O)OCC)C(=O)O[C@H]2[C@@H](OC)O[C@H](CO)[C@@H](OC(=O)c3ccc(Br)cc3)[C@@H]2OC1=O
Reply: 1

Ask: # classify by composite z-score band: CCOC(=O)C[C@H]1[C@H](OC(=O)c2ccc(-c3ccccc3)cc2)[C@@H](NC(=O)c2ccccc2)c2cc(OCCCO)ccc2N1C(=O)Cc1ccc(OC)cc1
Reply: 1

Ask: Place this compound in its band: COC(=O)[C@@]1(Cc2ccc(OC)cc2)[C@H]2c3cc(C(=O)N4CCCC4)n(Cc4nc5ccccc5[nH]4)c3C[C@H]2CN1C(=O)c1ccccc1
Reply: 2

Ask: Textbook exercise: identify the category of the compound given here, NC(=O)[C@@H]1[C@H]2C(=O)O[C@H](c3ccccc3)[C@H](c3ccccc3)N2[C@H](c2ccc(O)cc2)[C@@]12C(=O)Nc1ccc(C#CC3=CCCCC3)cc12 , according to its measured value.
Reply: 2

Ask: Into which bin does this compound go? COCC(=C=CC[C@@H](O)c1ccc(OCCO)cc1)C[C@@H](O)c1ccccn1
Reply: 1

Ask: Kindly identify the class of CCCC(=O)N(CCc1c[nH]c2ccccc12)[C@@H]1CC(C(=O)NCCO)=C[C@H](Oc2c(I)cc(CO)cc2OC)[C@H]1O .
Reply: 1

Ask: Pick a category. Item: COc1ccc([Si](C)(C)[C@@H]2[C@@H](CCn3cc(CCO)nn3)O[C@]3(C(=O)N(Cc4cccc(N5C(=O)c6cccc7cccc5c67)c4)c4ccccc43)[C@H]2C)cc1
Reply: 2

Ask: Tag the class for C=CCN1Cc2ccccc2[C@@H]2OC(c3ccc(OCCCO)cc3)=N[C@]2(CCS(=O)(=O)c2ccccc2)C1=O
Reply: 3

Ask: Which bin, given its composite z-score, does O=C(CS)NCCCCCNC(=O)[C@@H]1C[C@@H]2C(=O)NCC(=O)N2[C@@H]1c1cccc(OCCO)c1 occupy?
Reply: 2
